Test system: LPS-induced TNF-α release in peripheral blood mononuclear cells (PBMCs)
Test description: In vitro determination of PDE4 inhibitory activity in the PBMCs assay (LPS-induced TNF-α release)
Assay type: cell-based, human
Assay context: PBMC; human PBMCs, LPS 3 ng/ml, 18 hours; compounds of formula (II); read-out: PDE4 inhibition (IC50, 50% inhibition of LPS-induced TNF-α release)
Counter-ions that a name gives are not always drawn.
Measurement name: IC50

QUERY: Quick check: IC50 of O=C(O[C@@H](Cc1c(Cl)c[n+]([O-])cc1Cl)c1ccc(OC(F)F)c(OCC2CC2)c1)[C@H]1NCCS1 [Compound 6, hydrochloride] ?
RESULT: 0.1 to 1 nM

QUERY: What value of measured IC50 is listed for `O=C(O[C@@H](Cc1c(Cl)c[n+]([O-])cc1Cl)c1ccc(OC(F)F)c(OCC2CC2)c1)[C@H]1CCCCN1` ?
RESULT: 1 to 10 nM

QUERY: Could you share which IC50 value was measured for O=C(OC(Cc1c(Cl)c[n+]([O-])cc1Cl)c1ccc(OC(F)F)c(OCC2CC2)c1)C1CNCCO1 (stereo not shown) ?
RESULT: 1 to 10 nM

QUERY: Need IC50 of `O=C(O[C@@H](Cc1c(Cl)c[n+]([O-])cc1Cl)c1ccc(OC(F)F)c(OCC2CC2)c1)[C@@H]1CSCN1` , thanks.
RESULT: 0.1 to 1 nM

----------
Tested on: LPS-induced TNF-α release in peripheral blood mononuclear cells (PBMCs)
Test description: In vitro determination of PDE4 inhibitory activity in the PBMCs assay (LPS-induced TNF-α release)
Format: cell-based, human
Assay context: PBMC; human PBMCs, LPS 3 ng/ml, 18 hours, TNF-α by ELISA; read-out: PDE4 inhibition (IC50, 50% inhibition of LPS-induced TNF-α release)
Procedure: […] After 18 hours of incubation at 37° C. in a humidified incubator under an atmosphere of 95% air and 5% CO2, culture medium was collected and TNF-α measured by ELISA. […]
The entries below come with measured IC50 values attached.

NS(=O)(=O)c1cccc(S(=O)(=O)N2CCSC2C(=O)O[C@@H](Cc2c(Cl)c[n+]([O-])cc2Cl)c2ccc(OC(F)F)c(OCC3CC3)c2)c1 (some centres unmarked) : < 100 pM

QUERY: May I ask what IC50 has been recorded for `CN(C)C(=O)c1cccc(S(=O)(=O)N2CCCC[C@H]2C(=O)O[C@@H](Cc2c(Cl)c[n+]([O-])cc2Cl)c2ccc(OC(F)F)c(OCC3CC3)c2)c1` ?
RESULT: < 100 pM

QUERY: Given the compound `CN(C)C(=O)c1cccc(S(=O)(=O)N2CCS[C@H]2C(=O)O[C@@H](Cc2c(Cl)c[n+]([O-])cc2Cl)c2ccc(OC(F)F)c(OCC3CC3)c2)c1` , what is its reported IC50?
RESULT: < 100 pM

QUERY: Form field: reported IC50 of `O=C(O[C@@H](Cc1c(Cl)c[n+]([O-])cc1Cl)c1ccc(OC(F)F)c(OCC2CC2)c1)[C@@H]1SCCN1S(=O)(=O)c1ccccc1`
RESULT: 100 to 1000 pM

----------
Tested on: LPS-induced TNF-α release in peripheral blood mononuclear cells (PBMCs)
Test description: In vitro determination of PDE4 inhibitory activity in the PBMCs assay (LPS-induced TNF-α release)
Type: cell-based, human
Assay context: PBMC; human PBMCs, LPS 3 ng/ml, 18 hours, TNF-α by ELISA; read-out: PDE4 inhibition (IC50, 50% inhibition of LPS-induced TNF-α release)
Measurement name: IC50

QUERY: # query: IC50 of entry `COc1ccc(S(=O)(=O)N2CCC[C@H]2C(=O)O[C@@H](Cc2c(Cl)c[n+]([O-])cc2Cl)c2ccc(OC(F)F)c(OCC3CC3)c2)cc1C(=O)N(C)C`
RESULT: < 0.1 nM

QUERY: Entry under review: `COC(=O)c1ccccc1S(=O)(=O)N1CCS[C@H]1C(=O)O[C@@H](Cc1c(Cl)c[n+]([O-])cc1Cl)c1ccc(OC(F)F)c(OCC2CC2)c1` . Reported IC50?
RESULT: < 0.1 nM

QUERY: # lookup: IC50 of `COC(=O)c1ccc(S(=O)(=O)N2CCS[C@H]2C(=O)O[C@@H](Cc2c(Cl)c[n+]([O-])cc2Cl)c2ccc(OC(F)F)c(OCC3CC3)c2)cc1`
RESULT: 1 to 10 nM
